These entries and their values trace back to ChEMBL document CHEMBL1961873.

- systemUnderTest: Tyrosine-protein kinase Fes/Fps (Homo sapiens);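 further: mean inhibition of FES from the GSK PKIS kinase inhibitor screening set, assayed by Nanosyn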
- conditionsUsed: at 1 µM
readoutKind: inhibition (%)

# molecule, readoutKind, measuredNumber
records = [
    ("[O-][S+]1CCN(Cc2ccc(-c3ccc4ncnc(Nc5ccc(OCc6cccc(F)c6)c(Cl)c5)c4c3)o2)CC1", "inhibition", 4.91),
    ("COC(=O)Nc1nc2ccc(Oc3ccc(NC(=O)Nc4cccc(Cl)c4)cc3)cc2[nH]1", "inhibition", 0.57),
    ("CC1=C(C(=O)Nc2cc(Cl)c3[nH]ncc3c2)C(c2ccc(C(F)(F)F)cc2)CC(=O)N1 (configuration not stated)", "inhibition", 2.33),
    ("Fc1ccc(-c2nn3ccccc3c2-c2ccncc2)cc1", "inhibition", 0.96),
    ("CCn1c(-c2nonc2N)nc2c(C#CC(C)(C)O)nc(OC[C@H](N)c3ccccc3)cc21", "inhibition", 7.88),
    ("O=C(Nc1n[nH]c2cc(-c3ccc(F)cc3)ccc12)C1CC1", "inhibition", 2.43),
    ("c1ccc(-c2nc3n(c2-c2ccc4c(c2)OCO4)CCC3)nc1", "inhibition", -0.41),
    ("c1ccc(COc2ccc(Nc3ncnc4ccc(-c5ccco5)cc34)cc2)cc1", "inhibition", 1.74),
    ("CCn1c(-c2nonc2N)nc2c(C#CC(C)(C)O)ncc(OC3CCNCC3)c21", "inhibition", 5.88),
    ("CC(C)(CO)CNC(=O)c1ccc2c(c1)/C(=N/Nc1ccc(S(N)(=O)=O)cc1)C(=O)N2", "inhibition", 0.22),
    ("Cc1ccc(O)cc1Nc1ccnc2cc(-c3ccccn3)ccc12", "inhibition", 8.97),
    ("CN1CCC(n2cnc(-c3ccc(F)cc3)c2-c2ccnc(N)n2)CC1", "inhibition", 2.33),
    ("COc1ccc(-c2oc3ncnc(N)c3c2-c2ccc(NC(=O)Nc3cc(C(F)(F)F)ccc3F)cc2)cc1", "inhibition", 17.1),
    ("NC(=O)c1sc(-n2cnc3ccc(C(F)(F)F)cc32)cc1OCc1ccccc1Br", "inhibition", 2.43),
    ("NS(=O)(=O)c1ccc(Nc2ncc(-c3ccccc3)o2)cc1", "inhibition", 4.88),
    ("N#Cc1c(NC(=O)CN2CCOCC2)sc2c1CCCC2", "inhibition", 6.23),
    ("FC(F)(F)c1cccc(-c2nn3ncccc3c2-c2ccnc(Nc3ccc4c(c3)OCCO4)n2)c1", "inhibition", 3.62),
]
